# assay-system: recombinant human PAI-1 (Homo sapiens)
# assay-overview: biochemical
# settings: read-out: Inhibition Rate of PAI-1 Activity (%)
parameter: inhibition at 25 µM (%)
# unit: % | format: bare number

Field: example entries. Status: answers known.
Would you mind telling me what inhibition at 25 µM value was observed for CC(C)(C)c1ccc(CN(C(=O)C(=O)O)c2cc(-c3ccccc3)cc(C(F)(F)F)c2)cc1 ? 77

Would you mind telling me what inhibition at 25 µM value was observed for Cc1ccc(-c2ccc(OC(F)(F)F)cc2)cc1N(Cc1ccc(C(C)(C)C)cc1)C(=O)C(=O)O ? 79

Would you mind telling me what inhibition at 25 µM value was observed for CC(C)(C)c1ccc(CN(C(=O)C(=O)O)c2ccc(Nc3ccc(OC(F)(F)F)cc3)cc2)cc1 ? 97

***
Would you mind telling me what inhibition at 25 µM value was observed for CC(C)(C)c1ccc(Oc2cc(-c3ccc(OC(F)(F)F)cc3)ccc2OC(F)(F)C(=O)O)cc1 ? 98

Would you mind telling me what inhibition at 25 µM value was observed for CC(C)Oc1ccc(N(CCCCc2ccccc2)C(=O)C(=O)O)cc1-c1ccc(OC(F)(F)F)cc1 ? 96

Would you mind telling me what inhibition at 25 µM value was observed for O=C(O)C(=O)N(Cc1ccc(OC(F)(F)F)cc1)c1ccc(-c2ccc(OC(F)(F)F)cc2)cc1 ? 92

Would you mind telling me what inhibition at 25 µM value was observed for CC(C)(OCc1ccc(-c2ccc(OC(F)(F)F)cc2)cc1Oc1ccc(C(C)(C)C)cc1)C(=O)O ? 94

* * *

Measured inhibition at 25 µM of individual entries
# assay-system: recombinant human PAI-1 (Homo sapiens, UniProt P05121);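 note: PAI-1 preincubated with compound, then two-chain tPA added, residual tPA activity read with fluorogenic Pyr-Gly-Arg-MCA substrate after 30 min at room temperature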
# Sequence (P05121 24-402): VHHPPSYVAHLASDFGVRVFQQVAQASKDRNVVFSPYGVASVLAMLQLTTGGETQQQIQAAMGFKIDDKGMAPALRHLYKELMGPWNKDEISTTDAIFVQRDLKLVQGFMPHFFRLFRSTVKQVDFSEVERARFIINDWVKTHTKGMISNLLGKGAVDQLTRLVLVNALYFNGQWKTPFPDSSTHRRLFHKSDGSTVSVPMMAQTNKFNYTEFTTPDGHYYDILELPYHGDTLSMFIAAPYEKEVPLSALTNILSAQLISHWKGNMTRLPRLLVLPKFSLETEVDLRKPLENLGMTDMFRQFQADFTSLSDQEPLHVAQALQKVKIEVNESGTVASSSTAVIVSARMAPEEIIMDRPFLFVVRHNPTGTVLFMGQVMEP
# assay-overview: biochemical
# settings: read-out: Inhibition Rate of PAI-1 Activity (%), Compound Concentration 25µM
# unit: % | format: bare number

Field: example entries. Status: answers known.
Would you mind telling me what inhibition at 25 µM value was observed for CC(C)(Oc1cc(-c2ccc(OC(F)(F)F)cc2)ccc1OCc1ccc(C(C)(C)C)cc1)C(=O)O [Compound 106] ? 93

Would you mind telling me what inhibition at 25 µM value was observed for Cc1ccc(N(Cc2ccc(C(C)(C)C)cc2)C(=O)C(=O)O)cc1-c1ccc(OC(F)(F)F)cc1 [Compound 176] ? 91

Would you mind telling me what inhibition at 25 µM value was observed for O=C(O)CCc1cc(-c2ccc(OC(F)(F)F)cc2)ccc1OCCCCc1ccccc1 [Compound 102] ? 97

***
Would you mind telling me what inhibition at 25 µM value was observed for CCCOc1ccc(N(Cc2ccc(C(C)(C)C)cc2)C(=O)C(=O)O)cc1-c1ccc(OC(F)(F)F)cc1 [Compound 185] ? 89

Would you mind telling me what inhibition at 25 µM value was observed for CC(C)(C)c1ccc(CN(C(=O)C(=O)O)c2ccc(Cl)cc2-c2ccc(OC(F)(F)F)cc2)cc1 [Compound 192] ? 94

Would you mind telling me what inhibition at 25 µM value was observed for CC(C)(C)c1ccc(COc2cccc(Oc3ccc(OC(F)(F)F)cc3)c2CCC(=O)O)cc1 [Compound 86] ? 98

Would you mind telling me what inhibition at 25 µM value was observed for CCN(CC)c1ccc(N(CCCc2ccccc2)C(=O)C(=O)O)c(-c2ccc(OC(F)(F)F)cc2)c1 [Compound 238] ? 93

Would you mind telling me what inhibition at 25 µM value was observed for CC(C)(Oc1cccc(-c2ccc(OC(F)(F)F)cc2)c1OCc1ccc(C(C)(C)C)cc1)C(=O)O [Compound 118] ? 93
